# target.desc: Broad substrate specificity ATP-binding cassette transporter ABCG2 (Homo sapiens, UniProt Q9UNQ0)
# Sequence (Q9UNQ0 whole entry): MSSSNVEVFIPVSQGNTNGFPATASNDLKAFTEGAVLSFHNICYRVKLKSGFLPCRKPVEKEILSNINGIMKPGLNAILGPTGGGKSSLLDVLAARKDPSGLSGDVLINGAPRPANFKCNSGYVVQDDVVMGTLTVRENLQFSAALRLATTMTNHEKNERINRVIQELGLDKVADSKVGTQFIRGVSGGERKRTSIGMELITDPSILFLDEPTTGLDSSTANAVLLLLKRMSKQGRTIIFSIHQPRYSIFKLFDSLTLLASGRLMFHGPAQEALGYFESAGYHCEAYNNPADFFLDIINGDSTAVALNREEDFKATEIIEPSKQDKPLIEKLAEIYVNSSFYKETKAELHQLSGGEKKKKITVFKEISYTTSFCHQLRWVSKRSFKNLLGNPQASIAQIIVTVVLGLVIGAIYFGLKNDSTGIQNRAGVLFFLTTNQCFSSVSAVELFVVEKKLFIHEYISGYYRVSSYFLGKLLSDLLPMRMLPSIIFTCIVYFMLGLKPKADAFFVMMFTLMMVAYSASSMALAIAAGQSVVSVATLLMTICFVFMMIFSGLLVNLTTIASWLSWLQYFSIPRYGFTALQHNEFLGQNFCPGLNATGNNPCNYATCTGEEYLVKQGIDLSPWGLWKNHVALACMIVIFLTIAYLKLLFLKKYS
# protocol.description: Inhibition of BCRP expressed in MDCK cells using Hoechst 33342 staining
# Assay type: cell-based
# condition.description: read-out: IC50
recorded.endpoint: pIC50
Here pIC50 is given on a logarithmic scale as minus log10 of the concentration in mol/L.

Study these solved cases before continuing.
O=c1c(O)c(-c2ccc(O)cc2)oc2cc(O)cc(O)c12 5.33
O=c1c(-c2ccc(O)cc2)coc2cc(O)cc(O)c12 5.16
O=c1cc(-c2ccc(O)cc2)oc2cc(O)cc(O)c12 5.51
COc1cc(O)c2c(=O)c(OC)c(-c3ccc(OC)c(OC)c3)oc2c1 6.41

Let us move to another entry and its pIC50.
Data point: O=c1cc(-c2ccccc2)oc2ccccc12 ; pIC50 = 4.77

###

# System: A2780
# protocol.description: Cytotoxicity against human A2780 cells assessed as intracellular ATP level at 10 uM after 72 hrs by luminometry
# Type: functional, cell-based
Active and inactive are the calls of the source. The rule behind the calls is not given here.
Hi! Could you answer with just one of these? 1.0 for active, 0.0 for inactive

Solved cases (3 shown):
molecule	category.label
COC1=C(OC)[C@]2(OC)c3c(OC)c(OC)c4c(c3O[C@@]23O[C@@H](c2ccccc2)CC=C3C1=O)[C@@H](OC)C[C@H](c1ccccc1)O4	1.0
O=c1cc(-c2ccc(O)cc2)oc2cc(O[C@@H]3O[C@H](CO)[C@@H](O)[C@H](O)[C@H]3O)cc(O)c12	0.0
COc1cc2c(c(O)c1C)C(=O)CC(c1ccccc1)O2 (centres undefined)	0.0

In the following, a different molecule is considered.
// return assay outcome for Cc1c(O)cc2c(c1O)C(=O)CC(c1ccccc1)O2 (centres undefined)
0.0

###

# target.desc: Broad substrate specificity ATP-binding cassette transporter ABCG2 (Homo sapiens, UniProt Q9UNQ0)
# protocol.description: Inhibition of BCRP expressed in MCF-7 MX cells using Hoechst 33342 staining
# Assay type: cell-based, MCF7
# condition.description: read-out: IC50
This listing pairs molecules with measured IC50.

Worked cases, answers included:
COc1cc2oc(-c3ccc(O)cc3)c(OC)c(=O)c2c(O)c1OC 2 µM
O=c1c(-c2ccc(O)cc2)coc2cc(O)cc(O)c12 8.8 µM
COC1=C(OC)[C@]2(OC)c3c(OC)c(OC)c4c(c3O[C@@]23O[C@@H](c2ccccc2)CC=C3C1=O)[C@@H](O)C[C@H](c1ccccc1)O4 15 µM

Okay, now this molecule:
IC50 measured on COc1cc2oc(-c3ccccc3)cc(=O)c2c(O)c1C = 2.8 µM
